Where do these numbers come from? They come from patent US20230272051A1.

Kindly state koff for each of the entries shown.
# system: T1, SARS-CoV-2 Receptor Binding Domain (RBD) protein (SARS-CoV-2, UniProt P0DTC2 319-541)
# T1 construct: also called Sars-Cov-2 (COV2)
# protocol details: SPR (Carterra LSA); scFv captured by anti-V5, RBD as analyte
Value expressed in s⁻¹; do not type the unit.

Any idea what koff was measured for COVID19_P02_D10 (scFv, V domains shown) VH: QVQLVQSGAEVKKPGSSVKVSCKASGYMFTEFYMHWVRQAPGQGLEWMGGIIPVSGTANYAQKFQGRVTITADESTSTAYMELSSLRSEDTAVYYCARETVMGGMDVWGQGTLVTVSS VL: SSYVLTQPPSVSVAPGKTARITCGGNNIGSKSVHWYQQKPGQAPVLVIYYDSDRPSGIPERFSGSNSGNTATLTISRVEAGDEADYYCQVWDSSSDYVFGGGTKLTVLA ?
0.0029

Record request: koff value, item COVID19_P01_E06 (scFv, V domains shown) VH: QVQLVQSGAEVKKPGSSVKVSCKASGCTFTRFTMHWVRQAPGQGLEWMGGITPIFGITNYAQKFQGRVTITADESTSTAYMELSSLRSEDTAVYYCAHDTVMGGMEEWGQGTLVTVSS VL: SSYVLTQPPSVSVAPGKTARITCGGNNIGSKSVHWYQQKPGQAPVLVIYYDSDRPSGIPERFSGSNSGNTATLTISRVEAGDEADYYCQVWDSSNDYVFGGGTKLTVLA
0.0118
